SUBJECT OF TEST: Hu β2 (Homo sapiens)
ASSAY SUMMARY: Cell bioassay, cAMP accumulation, human β2 in CHO
EXPERIMENTAL CONTEXT: CHO (Hu β2); read-out: cell bioassay (EC50 cAMP accum.) β2
PROPERTY NAME: EC50 (µM)
Answers are plain numbers, in µM.

Q: So what does the record say about EC50 for CN(C)C(=O)COc1ccc2c(c1)C[C@@H](NC[C@H](O)c1ccc(O)c(CCO)c1)CC2 [MN-221] ?
Result: 0.013

* * *

SUBJECT OF TEST: Hu β2 (Homo sapiens, UniProt P07550)
Sequence (P07550 whole entry): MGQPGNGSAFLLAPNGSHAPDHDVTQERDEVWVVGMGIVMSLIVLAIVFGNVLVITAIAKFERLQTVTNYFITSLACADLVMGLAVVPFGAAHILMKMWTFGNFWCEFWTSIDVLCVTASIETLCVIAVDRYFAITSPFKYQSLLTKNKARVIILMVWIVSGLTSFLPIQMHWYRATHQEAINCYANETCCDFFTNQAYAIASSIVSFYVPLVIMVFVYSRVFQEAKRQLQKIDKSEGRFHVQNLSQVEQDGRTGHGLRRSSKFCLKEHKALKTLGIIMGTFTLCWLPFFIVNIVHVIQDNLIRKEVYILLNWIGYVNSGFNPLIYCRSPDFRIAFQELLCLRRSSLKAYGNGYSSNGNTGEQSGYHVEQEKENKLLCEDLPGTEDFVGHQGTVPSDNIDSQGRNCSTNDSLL
PROPERTY NAME: pIC50
One number for each entry, as −log10 of the molar value.

Q: So what does the record say about pIC50 for CN(C)C(=O)COc1ccc2c(c1)C[C@@H](NC[C@H](O)c1ccc(O)c(CCO)c1)CC2 ?
Result: 6.57
